Where do the numbers come from? From patent US12723255B2.

# TEST: enzyme activity assay at 23° C. with purified enzyme
# Type: biochemical
# Method: The enzyme activity of MON-HT protein variants with triclopyr, fluroxypyr, MCPA, MCPB, mecoprop, as substrates was determined using the enzyme activity assay conducted at 23° C. with purified enzyme. The activity was recorded as the maximum activity as a percentage of the wild-type RdpA enzyme's activity, which was set at 100%. […] The enzymatic activity with mecoprop as a substrate was reduced for each of the MON-HT1, MON-HT13, MON-HT15, and MON-HT17 variants compared to the wild-type RdpA enzyme. […]
OBSERVATION_TYPE: activity with MCPB as the substrate

MON-HT13: engineered oxygenase protein, amino acid sequence SEQ ID NO:47 (protein) MHAALTPLTNKYRFIDVQPLTGVLGAEITGVDLREPLDDSTWNEILDAFHTYQVIYFPGQAITNEQHIAFSRRFGPVDPVPILKSIEGYPEVQMIRREANESSRYIGDDWHADSTFLDAPPAAVVMRAIEVPEYGGDTGFLSMYSAWETLSPTMQATIEGLNVVHSATKVFGSLYQATNWRFSGTSVKVMDVDAGDRETVHPLVVTHPVTGRRALYCNQVYCQKIQGMTDAESKSLLQFLYEHATQFDFTCRVRWKKDQVLVWDNLCTMHRAVPDYAGKFRYLTRTTVAGDKPSR = no detectable activity
MON-HT1: engineered oxygenase protein, amino acid sequence SEQ ID NO:14 (protein) MHAALTPLTNKYRFIDVQPLTGVLGAEITGVDLREPLDDSTWNEILDAFHTYQVIYFPGQAITNEQHIAFSRRFGPVDPVPILKSIEGYPEVQMIRREANESSRFIGDDWHTDSTFLDAPPAAVVMRAIEVPEYGGDTGFLSMYSAWETLSPTMQATIEGLNVVHSATKVFGSLYQATNWRFSNTSVKVMDVDAGDRETVHPLVVTHPVTGRRALYCNQVYCQKIQGMTDAESKSLLQFLYEHATKFDFTCRVRWKKDQVLVWDNLCTMHRAVPDYAGKFRYLTRTTVAGDKPSR = no detectable activity
MON-HT15: engineered oxygenase protein, amino acid sequence SEQ ID NO:49 (protein) MHAALTPLTNKYRHIDVQPLTGVLGAEITGVDLREPLDDSTWNEILDAFHTYQVIYFPGQAITNEQHIAFSRRFGPVDPVPILKSIEGYPEVQMIRREANESSRYIGDDWHADSTFLDAPPAAVVMRAIEVPEYGGDTGFLSMYSAWETLSPAMQATIEGLNVVHSATKVFGSLYQATNWRFSNTSVKVMDVDAGDRETVHPLVVTHPVTGRRALYCNQIYCQKIQGMTDAESKSLLQFLYEHATQFDFTCRVRWKKDQVLVWDNLCTMHRAVPDYAGKFRYLTRTTVAGDKPSR = no detectable activity
